These data points were gathered from ChEMBL document CHEMBL1275314.

Tested on: Mus musculus
Run Description: Analgesic activity in Swiss albino mouse assessed as inhibition of heat-induced paw licking or jumping behavior at 10 mg/kg, po administered after 15 sec of heat challenge measured after 90 mins post dose by Eddy's hot plate method
Assay type: functional
Run Parameters: 1.5 h
Readout Kind: inhibition in vivo at 10 mg/kg (%)
Give bare numbers, in %.

Hi there! I need inhibition in vivo at 10 mg/kg for each item below, if you can.
1. O=C(O)Cc1ccccc1Nc1c(Cl)cccc1Cl [DICLOFENAC SODIUM]
2. CC(C)Cc1ccc(C(C)c2nn(CN3CCN(c4ccc(F)cc4)CC3)c(=S)o2)cc1 (stereo unspecified)

A:
[53.6, 57]

// each listed molecule needs a value for inhibition in vivo at 10 mg/kg
1. CC(C)Cc1ccc(C(C)c2nn(CN3CCN(c4ccc([N+](=O)[O-])cc4)CC3)c(=S)o2)cc1 (stereo unspecified)
2. CC(C)Cc1ccc(C(C)c2nn(CN3CCN(c4ccc(Cl)cc4)CC3)c(=S)o2)cc1 (stereo unspecified)
3. CCOC(=O)C1CCN(Cn2nc(C(C)c3ccc(CC(C)C)cc3)oc2=S)CC1 (stereo unspecified)
4. CSc1ccc(Cc2nn(CN3CCN(c4cccc(Cl)c4)CC3)c(=S)o2)cc1

A:
1: 44.8; 2: 35.8; 3: 55.2; 4: 41.2
